Test: amyloid nucleation score (Sup35N fusion, yeast selection) (log enrichment); library NNK3; higher = more nucleation; inactive = no reads after selection;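 further: zero at mode of non-aggregating sequences after 7 days selection at 30°C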

{"substance": "TGRVCFLCYTMSLIWSSPVT", "amyloid nucleation score": 0.07}
{"substance": "SPNWGLLGICLSTSRVQAL", "amyloid nucleation score": 1.86}
{"substance": "PFSFKLPR", "amyloid nucleation score": "inactive"}
{"substance": "FLLIIHHST", "amyloid nucleation score": -0.126}
{"substance": "ASFLVYGP", "amyloid nucleation score": "inactive"}
{"substance": "EWIGVVNVRNDPPSGC", "amyloid nucleation score": "inactive"}
{"substance": "FHSWIFQTISLPGQGYRLQ", "amyloid nucleation score": "inactive"}
{"substance": "WKEWLGMGLLVSNAGHKQGG", "amyloid nucleation score": "inactive"}
{"substance": "RVCSALCIRVLALFGCCSVE", "amyloid nucleation score": 1.05}
{"substance": "LVVLFGPNFLIPVGLRIAVN", "amyloid nucleation score": 0.245}
{"substance": "VVMHAYCWLWNYSDFSIMGS", "amyloid nucleation score": 1.57}
{"substance": "GAGYADICPTAFHMPRWVFN", "amyloid nucleation score": "inactive"}
{"substance": "ISYSAMVNCPDEIWVRYSSW", "amyloid nucleation score": "inactive"}
{"substance": "CYWKLYCGNEYYGVSFMGVL", "amyloid nucleation score": "inactive"}
{"substance": "EKLIVNDYCRRSGPDMVAVD", "amyloid nucleation score": "inactive"}
{"substance": "FGGSILTSYINGRGSAGLNW", "amyloid nucleation score": 0.797}
{"substance": "HFPAGFFSNWFCSIYYKVY", "amyloid nucleation score": "inactive"}
{"substance": "QYICHDNCRCCQRNEKFRRK", "amyloid nucleation score": "inactive"}
{"substance": "SRQLQPYYSVFRCLVRGSIK", "amyloid nucleation score": "inactive"}
{"substance": "YFGVTLLMYERARWASFYRF", "amyloid nucleation score": "inactive"}
{"substance": "KQCGTIG", "amyloid nucleation score": "inactive"}
{"substance": "AYRRKLISGFIWERFLFRCG", "amyloid nucleation score": "inactive"}
{"substance": "IRSLLLILVRSAVPSALSVN", "amyloid nucleation score": "inactive"}
{"substance": "TIWAGMLASR", "amyloid nucleation score": "inactive"}
{"substance": "LCLCYNLMSLLLLHLCREGQ", "amyloid nucleation score": "inactive"}
{"substance": "EFMAGNDSRIQCSRIRGCYG", "amyloid nucleation score": "inactive"}
{"substance": "SGHVHNSMKPGRSRTCTMLR", "amyloid nucleation score": "inactive"}
{"substance": "NFSETSAKYHVTSRGFSSSR", "amyloid nucleation score": 0.456}
{"substance": "RYVRCFLYTYKNFFD", "amyloid nucleation score": "inactive"}
{"substance": "FTMNQGSDVEVFLSSMF", "amyloid nucleation score": "inactive"}
{"substance": "FKRTTMCGDYAVYVTPGTSL", "amyloid nucleation score": "inactive"}
{"substance": "GRGNAGPCTSNRWDDFWEKK", "amyloid nucleation score": "inactive"}
{"substance": "IGMTRGMGLVVFYSRYMWDD", "amyloid nucleation score": "inactive"}
{"substance": "VYSDDVKVVYMYGTNPFDTV", "amyloid nucleation score": "inactive"}
{"substance": "DSSKWHAMYMLTKMKMTGWL", "amyloid nucleation score": "inactive"}
{"substance": "SMKSGSATCGIN", "amyloid nucleation score": "inactive"}
